# ASSAY_INFO: Tissue distribution of radioactivity after IV administration in rats bearing Walker 256 sarcoma (Tables 1-4)
# Assay type: in vivo, female Sprague Dawley rats
# EXPERIMENTAL_SETUP: rat, lung; tumor-bearing rats, 24 hours after IV, 125I-labelled, N = 3, mean ± standard error (Table 4); read-out: Radioactivity in lung
READOUT_TYPE: tissue uptake at 24 h (%ID/g)
Numbers only, in %ID/g.

Quote tissue uptake at 24 h reported for C[N+](C)(C)CCOP(=O)([O-])OCCCOCCCCCCCCCCCCc1cccc([125I])c1 [ET-12IP-H] please. 0.105

---

# ASSAY_INFO: Tissue distribution of radioactivity after IV administration in normal (control) rats (Tables 1-4)
# Format: in vivo, female Sprague Dawley rats
# EXPERIMENTAL_SETUP: rat, blood, 24 hours after IV, 125I-labelled, N = 3, mean ± standard error (Table 4), read-out: Radioactivity in blood
READOUT_TYPE: tissue uptake at 24 h (%ID/g)
Answers are plain numbers, in %ID/g.

Quote tissue uptake at 24 h reported for C[N+](C)(C)CCOP(=O)([O-])OCCCOCCCCCCCCCCCCc1cccc([125I])c1 [ET-12IP-H] please. 0.047

---

# ASSAY_INFO: Tissue distribution 24 hours after I.V. administration to rats bearing the Walker-256 carcinosarcoma (Tables 5 and 6)
# Format: in vivo, Sprague-Dawley rats
# EXPERIMENTAL_SETUP: rat, lung, iv, tumor-bearing rats, read-out: Distribution of radioactivity: lung
Would you kindly list tissue uptake at 24 h for each of these compounds?
Mention the unit after the number when you answer.

# COMPOUND, tissue uptake at 24 h
measured = [
    ("C[N+](C)(C)CCOP(=O)([O-])OCCCOCCCCCCCCCCCCc1cccc([125I])c1 [ET-12IP-H]", "0.105 %ID/g"),
]

API: the following record is the query input.
Quote tissue uptake at 24 h reported for COC(COCCCCCCCCCCCCc1cccc([125I])c1)COP(=O)([O-])OCC[N+](C)(C)C (racemic) [ET-12IP-OMe] please. 0.299 %ID/g

---

# ASSAY_INFO: Tissue distribution of radioactivity after IV administration in normal (control) rats (Tables 1-4)
# Type: in vivo, female Sprague Dawley rats
# EXPERIMENTAL_SETUP: rat, liver, 6 hours after IV, 125I-labelled, N = 3, mean ± standard error, read-out: Radioactivity in liver
Would you kindly list tissue uptake at 6 h for each of these compounds?
Mention the unit after the number when you answer.

# COMPOUND, EXPERIMENTAL_RESULT
rows = [
    ("COC(COCCCCCCCCCCCCc1cccc([125I])c1)COP(=O)([O-])OCC[N+](C)(C)C (racemic) [ET-12IP-OMe]", "1.74 %ID/g"),
]

API: the following record is the query input.
Quote tissue uptake at 6 h reported for C[N+](C)(C)CCOP(=O)([O-])OCCCOCCCCCCCCCCCCc1cccc([125I])c1 [ET-12IP-H] please. 1.35 %ID/g

---

# ASSAY_INFO: Tissue distribution 24 hours after I.V. administration to rats bearing the Walker-256 carcinosarcoma (Tables 5 and 6)
# Type: in vivo, Sprague-Dawley rats
# EXPERIMENTAL_SETUP: rat, liver, iv, tumor-bearing rats, read-out: Distribution of radioactivity: liver
Would you kindly list tissue uptake at 24 h for each of these compounds?
Give bare numbers, in %ID/g.

# COMPOUND, EXPERIMENTAL_RESULT
rows = [
    ("COC(COCCCCCCCCCCCCc1cccc([125I])c1)COP(=O)([O-])OCC[N+](C)(C)C (racemic) [ET-12IP-OMe]", 0.743),
]

Quote tissue uptake at 24 h reported for C[N+](C)(C)CCOP(=O)([O-])OCCCOCCCCCCCCCCCCc1cccc([125I])c1 [ET-12IP-H] please. 0.139

---

# ASSAY_INFO: Tissue distribution of radioactivity after IV administration in normal (control) rats (Tables 1-4)
# Type: in vivo, female Sprague Dawley rats
# EXPERIMENTAL_SETUP: rat, kidney, 24 hours after IV, 125I-labelled, N = 3, mean ± standard error (Table 4), read-out: Radioactivity in kidney
READOUT_TYPE: tissue uptake at 24 h (%ID/g)
Give bare numbers, in %ID/g.

Quote tissue uptake at 24 h reported for C[N+](C)(C)CCOP(=O)([O-])OCCCOCCCCCCCCCCCCc1cccc([125I])c1 [ET-12IP-H] please. 0.257

---

# ASSAY_INFO: Tissue distribution of radioactivity after IV administration in rats bearing Walker 256 sarcoma (Tables 1-4)
# Format: in vivo, female Sprague Dawley rats
# EXPERIMENTAL_SETUP: rat, walker 256 tumor; Walker 256 sarcoma implanted in thigh, 24 hours after IV, 125I-labelled, N = 3, mean ± standard error (Table 4); read-out: Radioactivity in tumor
READOUT_TYPE: tissue uptake at 24 h (%ID/g)
Answers are plain numbers, in %ID/g.

Quote tissue uptake at 24 h reported for C[N+](C)(C)CCOP(=O)([O-])OCCCOCCCCCCCCCCCCc1cccc([125I])c1 [ET-12IP-H] please. 0.463

---

# ASSAY_INFO: Tissue distribution of radioactivity after IV administration in normal (control) rats (Tables 1-4)
# Assay type: in vivo, female Sprague Dawley rats
# EXPERIMENTAL_SETUP: rat, muscle, 24 hours after IV, 125I-labelled, N = 4, mean ± standard error, read-out: Radioactivity in muscle
READOUT_TYPE: tissue uptake at 24 h

Quote tissue uptake at 24 h reported for COC(COCCCCCCCCCCCCc1cccc([125I])c1)COP(=O)([O-])OCC[N+](C)(C)C (racemic) [ET-12IP-OMe] please. 0.034 %ID/g

---

# ASSAY_INFO: Tissue distribution of radioactivity after IV administration in rats bearing Walker 256 sarcoma (Tables 1-4)
# Assay type: in vivo, female Sprague Dawley rats
# EXPERIMENTAL_SETUP: rat, lung; tumor-bearing rats, 24 hours after IV, 125I-labelled, N = 3, mean ± standard error; read-out: Radioactivity in lung
READOUT_TYPE: tissue uptake at 24 h (%ID/g)
Numbers only, in %ID/g.

Quote tissue uptake at 24 h reported for COC(COCCCCCCCCCCCCc1cccc([125I])c1)COP(=O)([O-])OCC[N+](C)(C)C (racemic) [ET-12IP-OMe] please. 0.299

---

# ASSAY_INFO: Tissue distribution of radioactivity after IV administration in rats bearing Walker 256 sarcoma (Tables 1-4)
# Format: in vivo, female Sprague Dawley rats
# EXPERIMENTAL_SETUP: rat, liver; tumor-bearing rats, 24 hours after IV, 125I-labelled, N = 3, mean ± standard error (Table 4); read-out: Radioactivity in liver
READOUT_TYPE: tissue uptake at 24 h (%ID/g)
Answers are plain numbers, in %ID/g.

Quote tissue uptake at 24 h reported for C[N+](C)(C)CCOP(=O)([O-])OCCCOCCCCCCCCCCCCc1cccc([125I])c1 [ET-12IP-H] please. 0.139

---

# ASSAY_INFO: Tissue distribution of radioactivity after IV administration in rats bearing Walker 256 sarcoma (Tables 1-4)
# Format: in vivo, female Sprague Dawley rats
# EXPERIMENTAL_SETUP: rat, walker 256 tumor; Walker 256 sarcoma implanted in thigh, 24 hours after IV, 125I-labelled, N = 3, mean ± standard error; read-out: Radioactivity in tumor
READOUT_TYPE: tissue uptake at 24 h (%ID/g)
Give bare numbers, in %ID/g.

Quote tissue uptake at 24 h reported for COC(COCCCCCCCCCCCCc1cccc([125I])c1)COP(=O)([O-])OCC[N+](C)(C)C (racemic) [ET-12IP-OMe] please. 1.11

---

Would you kindly list tissue uptake at 6 h for each of these molecules?
# ASSAY_INFO: Tissue distribution of radioactivity after IV administration in rats bearing Walker 256 sarcoma (Tables 1-4)
# Type: in vivo, female Sprague Dawley rats
# EXPERIMENTAL_SETUP: rat, blood; tumor-bearing rats, 6 hours after IV, 125I-labelled, N = 3, mean ± standard error; read-out: Radioactivity in blood
One number for each entry, in %ID/g.

# MOLECULE, tissue uptake at 6 h (%ID/g)
measured = [
    ("C[N+](C)(C)CCOP(=O)([O-])OCCCOCCCCCCCCCCCCc1cccc([125I])c1 [ET-12IP-H]", 0.239),
]

API: the following record is the query input.
Quote tissue uptake at 6 h reported for COC(COCCCCCCCCCCCCc1cccc([125I])c1)COP(=O)([O-])OCC[N+](C)(C)C (racemic) [ET-12IP-OMe] please. 0.231

---

# ASSAY_INFO: Tissue distribution of radioactivity after IV administration in normal (control) rats (Tables 1-4)
# Type: in vivo, female Sprague Dawley rats
# EXPERIMENTAL_SETUP: rat, kidney, 24 hours after IV, 125I-labelled, N = 4, mean ± standard error, read-out: Radioactivity in kidney
READOUT_TYPE: tissue uptake at 24 h (%ID/g)
One number for each entry, in %ID/g.

Quote tissue uptake at 24 h reported for COC(COCCCCCCCCCCCCc1cccc([125I])c1)COP(=O)([O-])OCC[N+](C)(C)C (racemic) [ET-12IP-OMe] please. 0.426
